Measured ILS at 6.25 mg/kg of individual entries
measurement-notes: Antitumor activity in vivo in CD2F1 mice measured in terms of percent increase in lifespan calculated at a dose of 6.25 mg/kg intraperitoneally on days 1-5.
Format: functional
experimental-context: Mus musculus, ip, route intraperitoneal
The answer is to be given in %; state only the numeric part.

{"molecule": "CSc1c(O)c2c(c(O)c1SC)[C@@H]1COC3[C@@H]4C[C@@H](C(=O)O)[C@H]([C@H](C2)N31)N4C (stereo partly drawn)", "value-measured": 59}

[in] Fill blank: measured ILS at 6.25 mg/kg of the molecule CCSC1=C(SCC)C(=O)C2=C(C[C@H]3[C@H]4[C@H](C(=O)O)C[C@@H](C(C#N)N3[C@H]2CO)N4C)C1=O (stereo partly drawn) is ____.
[out] 51

[in] Sample CN1[C@@H]2[C@H](C(=O)O)C[C@H]1C(C#N)N1[C@@H](CO)C3=C(C[C@@H]21)C(=O)C(SCCO)=C(SCCO)C3=O (stereo partly drawn) — what was its ILS at 6.25 mg/kg?
[out] 20

[in] What does the data say about its ILS at 6.25 mg/kg? Entry: CN1[C@@H]2[C@H](C(=O)O)C[C@H]1C(C#N)N1[C@@H](CO)c3c(O)ccc(O)c3C[C@@H]21 (stereo partly drawn)
[out] 23

[in] Give its ILS at 6.25 mg/kg value. Item: COC1=C(SC(C)C)C(=O)C2=C(C1=O)[C@@H]1COC3[C@@H]4C[C@@H](C(=O)O)[C@H]([C@H](C2)N31)N4C (stereo partly drawn)
[out] 81
